system: Fibroblast; assay: Incucyte cell viability with human fibroblast; assay type: toxicity, cell-based; conditions: 24 h, 10 µM, compound concentration 10 uM, replicate number 2; also: unitless GR value; below 1 slowed growth and below 0 cell loss
Attribute: Growth Rate

Compound	Growth Rate
COc1ccc(CC(=O)NCc2ccccc2-c2ccccc2C(=O)NCc2ccc(F)cc2F)cc1	0.91
CC[C@@]1(c2ccccc2)NC(=O)N(Cc2ccccc2)C1=O	0.58
COc1cc2c(NC3CCN(C(C)C)CC3)nc(C3CCCCC3)nc2cc1OCCCN1CCCC1	-0.46
COc1ccc2nc3ccc(OC)cc3c(SCCCN)c2c1.Cl	0.89
CCCCCNC(=O)N1CCC(CN(Cc2ccc(Cl)cc2)Cc2ccc([N+](=O)[O-])s2)C1 (centres undefined)	0.64
Cc1nccc(COC(=O)N2C[C@@H]3[C@@H](CNC(=O)c4ccc5[nH]nnc5c4)[C@@H]3C2)n1	0.95
O=C(CNC(=O)c1ccc(-c2ccccc2)cc1)NC1CCCc2ccccc21 (centres undefined)	0.7
CC(C)(O)c1cn(-c2ccc(-c3cccc(S(C)(=O)=O)c3)cc2)c(C(C)(C)c2ccccc2Cl)n1	0.63
CC(=O)c1c(C)c2cnc(Nc3ccc(N4CCN(CCOCCOCCOCCNC(=O)COc5cccc6c5C(=O)N(C5CCC(=O)NC5=O)C6=O)CC4)cn3)nc2n(C2CCCC2)c1=O (centres undefined)	0.89

---

system: HEK-293T; experiment: Incucyte cell viability with HEK293T; assay type: toxicity, cell-based; conditions: human, 24 h, 10 µM, compound concentration 10 uM, replicate number 1; also: unitless GR value; below 1 slowed growth and below 0 cell loss
Threshold rule: Growth Rate greater than or equal to 0.2 is Criterion met; below that, Criterion not met.

In [3]: df
Out[3]:
                                    compound        label_class
 0  CCn1c(-c2nonc2N)nc2c(C#CC(C)(C)O)ncc(OCC3CCCNC3)c21 (centres undefined)  Criterion not met
 1  CC(C)(C)c1cc(NC(=O)c2csc(Nc3ccccn3)n2)no1      Criterion met
 2  Cn1cncc1-c1cn(-c2cccc(C(=O)Nc3cccc(C(F)(F)F)c3)c2)nn1      Criterion met
 3  Cn1c(C2(NC(=O)c3ccc4c(C5CCCC5)c(-c5ncc(Br)cn5)n(C)c4c3)CCC2)nc2ccc(/C=C/C(=O)O)cc21      Criterion met
 4  COc1ccc(CCCN2CCC(COC(c3ccccc3)c3ccccc3)CC2)cc1.Cl      Criterion met
 5   COc1cc2nc(C)nc(NC3(c4ccccc4)CC3)c2cc1OC      Criterion met
 6  Cn1ncnc1COc1nn2c(-c3cc(F)ccc3F)nnc2cc1C(C)(C)C      Criterion met
 7  CC(C)(C)NC(=O)c1cncn1C1CCN(c2ccc(-c3nnc(C(F)(F)F)o3)cn2)CC1  Criterion not met
 8  Cl.Cl.NC1(c2ccc(-c3nc4ccn5c(=O)[nH]nc5c4cc3-c3ccccc3)cc2)CCC1  Criterion not met
 9  CCC(=O)O[C@@H](OP(=O)(CCCCc1ccccc1)CC(=O)N1C[C@H](C2CCCCC2)C[C@H]1C(=O)[O-])C(C)C.[Na+] (some centres undefined)      Criterion met
10  CCN1CCN(Cc2ccc(NC(=O)c3ccc(C)c(NC(=O)c4cncc(-c5cccs5)c4)c3)cc2C(F)(F)F)CC1  Criterion not met
11  C/C=C1\C(=O)CC2C3CCC4=CC(=O)CC[C@]4(C)C3CC[C@]12C (some centres undefined)      Criterion met
12  CC(C)(O)c1ccc2c(c1)ncn2-c1cccc(-c2ccccc2C#N)c1      Criterion met
13  CCC(F)(F)c1cc(N2CCC(S(C)(=O)=O)CC2)nc2sc(C(N)=O)c(N)c12      Criterion met
14  Cn1cc(-c2ccc3occ(-c4cccc(-c5ccncc5)c4)c3n2)cn1      Criterion met
15  O=C(CCSCc1ccco1)NNC(=O)N1Cc2ccccc2Oc2ccc(Cl)cc21      Criterion met
16  CCNC1=N[C@@H]2[C@@H](O)[C@H](O)[C@@H](CO)O[C@@H]2S1      Criterion met
17  Cc1cc([N+](=O)[O-])c(NS(=O)(=O)c2cccc(C(=O)O)c2)cc1-c1cccnc1      Criterion met
18  O=C(Nc1ccc(OC(F)(F)Cl)cc1)c1cnc(N2CC[C@@H](O)C2)c(-c2ccn[nH]2)c1  Criterion not met

---

system: U2OS; test: Incucyte cell viability with U2OS; format: toxicity, cell-based; details: human, 6 h, 10 µM, compound concentration 10 uM, replicate number 1; also: unitless GR value; below 1 slowed growth and below 0 cell loss
Label MET when Growth Rate is at or above 0.8; otherwise label NOT MET.

In [3]: df
Out[3]:
                                   compound  label_class
0  COc1ccc(CSc2nnc(-c3ccc4ncsc4c3)o2)cc1C(F)(F)F      NOT MET
1  Cc1ccc2c(NS(=O)(=O)c3ccccc3Cl)cccc2c1Oc1ncccc1-c1ccnc(N[C@H]2CCCNC2)n1.Cl      NOT MET
2  CC(=O)Nc1nc(C)c(S(=O)(=O)Nc2ccc(C(O)(C(F)(F)F)C(F)(F)F)cc2)s1      NOT MET
3  CCCCCNC(=O)N1CCC(CN(Cc2ccc(Cl)cc2)Cc2ccc([N+](=O)[O-])s2)C1 (centres undefined)          MET
4  COc1cc(OC)cc(-c2cc3cnc(N)nc3nc2NC(=O)NC(C)(C)C)c1          MET
5  C[C@H](CCC(=O)O)[C@H]1CC[C@H]2[C@@H]3CC[C@@H]4C[C@H](O)CC[C@]4(C)[C@H]3CC[C@]12C          MET
6  Cc1nsc(Nc2cnc(C(F)(F)F)cn2)c1C(=O)Nc1ccc(O[C@H]2CCCN(CC(F)(F)F)C2)nc1      NOT MET
7  Cc1cc(-c2ccnc(Nc3cnn(C)c3)n2)ccc1CNC(=O)N1CC(OC(C)C)C1          MET

---

system: HEK-293T; experiment: Incucyte cell viability with HEK293T; format: toxicity, cell-based; details: human, 24 h, 10 µM, compound concentration 10 uM, replicate number 1; also: unitless GR value; below 1 slowed growth and below 0 cell loss
Output met for records whose Growth Rate is lower than 0.6, not met for records at or above 0.6.

>>> df
                                    compound  subject_of_test  label_class
 0            O=C(Nc1ccc(Cl)nc1)c1ccc(Cl)cc1         HEK-293T      not met
 1  CCN1C(=O)/C(=C(\NC2CCN(C)CC2)c2ccc3c(c2)OCO3)c2cc(C(C)=O)ccc21         HEK-293T      not met
 2  CC1(C)C(=O)N([C@H]2CCc3c(O)cccc32)c2nc(Nc3cccc(CN4CCCC4)c3)ncc21         HEK-293T          met
 3  [2H]C([2H])([2H])NC(=O)c1nnc(NC(=O)C2CC2)cc1Nc1cccc(-c2ncn(C)n2)c1OC         HEK-293T      not met
 4  CN(C)C/C=C/C(=O)Nc1cccc(S(=O)(=O)N2CCC(NC(=O)c3n[nH]cc3NC(=O)c3c(Cl)cc(Cl)cc3Cl)CC2)c1         HEK-293T          met
 5  CCCCc1oc2ccccc2c1C(=O)c1cc(I)c(OCCN(CC)CC)c(I)c1.Cl [AMIODARONE HYDROCHLORIDE]         HEK-293T          met
 6             CCN1C(=CC(C)=O)Sc2ccc(OC)cc21         HEK-293T          met
 7  COc1cc(C(=O)N2CC[C@@H](O)[C@@H](N)C2)cc2nc(-c3cc4ccccc4n3CC3CC3)n(C)c12.Cl         HEK-293T          met
 8  CCn1c(=O)c2c(C)c(C(=O)N3CCC(O)CC3)sc2n(CCC(F)(F)F)c1=O         HEK-293T      not met
 9  CN(C)C/C=C/C(=O)Nc1cc2c(Nc3ccc(F)c(Cl)c3)ncnc2cc1OC[C@@H]1CCCO1         HEK-293T          met
10  Cc1cccc(F)c1C(=O)Nc1cnc(-c2cc3c(cc2Cl)OC(F)(F)O3)cn1         HEK-293T          met
11  CC(=O)N(CCN(C)C)c1ccc(N/C(=C2\C(=O)Nc3cc(Cl)ccc32)c2ccccc2)cn1         HEK-293T          met
12  CCN1C(=O)N(c2c(F)c(OC)cc(OC)c2F)Cc2cnc3[nH]c(CN4CCOCC4)cc3c21         HEK-293T          met
13  CNS(=O)(=O)c1ccc(N(C)C)c(Nc2ncnc3cc(OC)c(OC)cc23)c1         HEK-293T      not met
14  CCS(=O)(=O)c1ccc(OC)c(Nc2ncc(-c3cccc(F)c3)o2)c1 [GW621970X]         HEK-293T          met
15  CC1=C(C(=O)OCCO)[C@@H](c2ccc(C#N)cc2)NC(=O)N1c1cccc(C(F)(F)F)c1         HEK-293T      not met
16  CCN(C(=O)CO)[C@H]1CN(/C(=N\C#N)Nc2cccc(OC(F)F)c2)N=C1c1ccc(Cl)c(Cl)c1         HEK-293T      not met
17  O=C(NCCN1CCOCC1)c1ccc2nn(CCOc3ccc(Cl)cc3)cc2c1         HEK-293T      not met

All values here come from ChEMBL document CHEMBL5303304.
